- Target Or System: ABHD6 (Mus musculus, UniProt Q8R2Y0)
- Construct: Proteomes (mouse brain membrane fraction or cell lysates); from tissue; host or cells: mouse brain membrane fraction (or cell lysates, not specified)
- Sequence (Q8R2Y0 1-336): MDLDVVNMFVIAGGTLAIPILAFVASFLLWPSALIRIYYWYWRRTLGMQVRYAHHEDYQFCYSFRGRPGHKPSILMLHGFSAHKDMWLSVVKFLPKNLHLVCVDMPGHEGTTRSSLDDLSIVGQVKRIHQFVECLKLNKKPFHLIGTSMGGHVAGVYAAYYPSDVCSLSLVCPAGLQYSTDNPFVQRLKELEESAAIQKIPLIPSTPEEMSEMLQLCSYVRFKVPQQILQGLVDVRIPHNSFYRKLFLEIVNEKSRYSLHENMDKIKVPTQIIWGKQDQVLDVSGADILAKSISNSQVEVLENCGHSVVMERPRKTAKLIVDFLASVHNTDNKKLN
- Method Description: In vitro competitive activity-based protein profiling (gel-based, FP-Rh or HT-01 probe)
- Format: biochemical
- Measurement Setup: 10 μM inhibitor; read-out: % Inhibition at 10 μM, C = ABHD6
Reported Endpoint: inhibition at 10 µM

INSERT INTO assay_data (compound, readout_value) VALUES
  ('O=C(c1cnn(C(=O)N2CCN(Cc3cccnc3)CC2)c1)N1CCCCC1 [Example 71]', '> 75%'),
  ('N#Cc1cnn(C(=O)NCCCCc2ccccc2)c1 [Example 36]', '25 to 75%'),
  ('CC(=O)N1CCCN(C(=O)n2cc(C(F)(F)F)cn2)CC1 [Example 154]', '> 75%'),
  ('Cc1cnn(C(=O)NCCCCCc2ccccc2)c1 [Example 38]', '< 25%'),
  ('N#Cc1cnn(C(=O)N2CCCCC2)c1 [Example 3]', '> 75%'),
  ('Cc1cc(-c2ccccc2)ccc1CN1CCN(C(=O)n2cc(C(=O)N3CCCC3)cn2)CC1 [Example 85]', '> 75%'),
  ('O=C(N1CCN(Cc2ccc(N3CCCC3)cc2)CC1)n1cc(Cl)cn1 [Example 212]', '> 75%'),
  ('O=C(N1CCCC1)n1cc(C(F)(F)F)cn1 [Example 199]', '> 75%'),
  ('CS(=O)(=O)N1CCN(C(=O)n2cc(C(F)(F)F)cn2)CC1 [Example 150]', '> 75%'),
  ('O=C(N1CCN(Cc2ccc3ccccc3c2)CC1)n1cc(I)cn1 [Example 14]', '> 75%'),
  ('O=C(N1CCN(Cc2ccc3c(c2)OCO3)CC1)n1cc(-c2ccccc2)cn1 [Example 58]', '> 75%'),
  ('CC(=O)N1CCN(C(=O)n2cc(C)cn2)CC1 [Example 161]', '< 25%'),
  ('Cc1cc(N2CCN(C(=O)n3cc(-c4ccccc4)cn3)CC2)c2ccccc2n1 [Example 207]', '> 75%'),
  ('Cc1cc(-c2ccccc2)ccc1CN1CCN(C(=O)n2cc(Cl)cn2)CC1 [Example 137]', '> 75%'),
  ('O=C(c1cnn(C(=O)N2CCN(Cc3ccc4c(c3)OCO4)CC2)c1)N1CCOCC1 [Example 51]', '> 75%'),
  ('CN(CCN(C)S(C)(=O)=O)C(=O)n1cc(C#N)cn1 [Example 197]', '25 to 75%'),
  ('N#Cc1cnn(C(=O)N2CCN(Cc3ccc(Oc4ccccc4)cc3)CC2)c1 [Example 18]', '> 75%'),
  ('CN(CCN(C)C(=O)n1cc(C(F)(F)F)cn1)C(=O)c1ccccc1 [Example 160]', '> 75%'),
  ('CC(=O)N(C)CCN(C)C(=O)n1cc(Cl)cn1 [Example 193]', '< 25%'),
  ('CN(Cc1cccc(-c2ccncc2)c1)C(=O)n1cc(C#N)cn1 [Example 221]', '> 75%');

* * *

# key: entry, value: inhibition at 1 µM
- Target Or System: MAGL (Mus musculus, UniProt O35678)
- Construct: Proteomes (mouse brain membrane fraction or cell lysates); from tissue; host or cells: mouse brain membrane fraction (or cell lysates, not specified)
- Sequence (O35678 1-303): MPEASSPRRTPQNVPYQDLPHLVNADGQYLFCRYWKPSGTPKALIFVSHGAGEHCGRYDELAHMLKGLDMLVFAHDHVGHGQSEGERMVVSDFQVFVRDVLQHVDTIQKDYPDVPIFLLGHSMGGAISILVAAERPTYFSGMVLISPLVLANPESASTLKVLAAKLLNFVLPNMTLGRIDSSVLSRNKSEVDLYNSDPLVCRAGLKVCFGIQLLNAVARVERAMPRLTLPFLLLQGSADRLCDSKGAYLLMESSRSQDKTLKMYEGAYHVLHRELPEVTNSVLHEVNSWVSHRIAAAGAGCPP
- Method Description: In vitro competitive activity-based protein profiling (gel-based, FP-Rh or HT-01 probe)
- Format: biochemical
- Measurement Setup: 1 μM inhibitor
- Protocol: In Vitro Competitive Activity-Based Protein Profiling. Proteomes (mouse brain membrane fraction or cell lysates) (50 μL, 1.0 mg/mL total protein concentration) were preincubated with varying concentrations of inhibitors at 37° C. […] Following gel imaging, serine hydrolase activity was determined by measuring fluorescent intensity of gel bands corresponding to MAGL, ABHD6, FAAH, and PLA2G7 using ImageJ 1.43u software.
Reported Endpoint: inhibition at 1 µM

INSERT INTO measurements (compound, readout_value) VALUES
  ('O=C(N1CCN(Cc2ccc(C(F)(F)F)cc2N2CCCC2)CC1)n1cc(F)cn1 [Example 126]', '> 75%'),
  ('Cc1cnn(C(=O)N2CCN(Cc3ccc(Oc4ccccc4)cc3)CC2)c1 [Example 17]', '> 75%'),
  ('CN1CCN(C(=O)n2cc(Cl)cn2)CC1 [Example 185]', '< 25%'),
  ('CN(CCN(C)C(=O)n1cccn1)C(=O)OC(C)(C)C [Example 28]', '< 25%'),
  ('COc1cc(-c2ccccc2)ccc1CN1CCN(C(=O)n2cc(C#N)cn2)CC1 [Example 145]', '> 75%'),
  ('CCN(Cc1ccc(C)cc1)C(=O)n1cc(Cl)cn1 [Example 133]', '< 25%'),
  ('CC(=O)N(C)CCN(C)C(=O)n1cc(C#N)cn1 [Example 181]', '< 25%'),
  ('O=C(N1CCN(c2ccc(N3CCCC3)cc2)CC1)n1cc(C(F)(F)F)cn1 [Example 241]', '> 75%'),
  ('CCN(Cc1ccccc1OC)C(=O)n1cc(Cl)cn1 [Example 127]', '< 25%');

* * *

- Target Or System: PLA2G7 (Mus musculus, UniProt Q60963)
- Construct: Proteomes (mouse brain membrane fraction or cell lysates); from tissue; host or cells: mouse brain membrane fraction (or cell lysates, not specified)
- Sequence (Q60963 22-440): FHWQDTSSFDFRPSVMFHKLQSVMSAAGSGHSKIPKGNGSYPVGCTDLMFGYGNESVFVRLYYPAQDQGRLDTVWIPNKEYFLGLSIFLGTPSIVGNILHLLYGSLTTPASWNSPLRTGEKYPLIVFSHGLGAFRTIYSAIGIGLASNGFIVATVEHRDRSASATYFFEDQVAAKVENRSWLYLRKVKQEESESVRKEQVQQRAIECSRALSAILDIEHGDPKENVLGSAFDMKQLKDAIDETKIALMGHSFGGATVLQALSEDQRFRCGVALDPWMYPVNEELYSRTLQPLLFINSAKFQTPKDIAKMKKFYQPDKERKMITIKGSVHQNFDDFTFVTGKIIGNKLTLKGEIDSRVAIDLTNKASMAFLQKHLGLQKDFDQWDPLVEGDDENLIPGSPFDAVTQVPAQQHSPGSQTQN
- Method Description: In vitro competitive activity-based protein profiling (gel-based, FP-Rh or HT-01 probe)
- Assay type: biochemical
- Measurement Setup: 10 μM inhibitor; gel-based competitive ABPP; read-out: % Inhibition at 10 μM, D = PLA2G7
Reported Endpoint: inhibition at 10 µM

INSERT INTO results (compound, target_or_system, readout_value) VALUES
  ('O=C(c1cnn(C(=O)N2CCN(Cc3ccc(-c4ccccc4)cc3Cl)CC2)c1)N1CCCC1 [Example 289]', 'PLA2G7 (Mus musculus, UniProt Q60963)', '> 75%'),
  ('COc1cc(-c2ccccc2)ccc1CN1CCN(C(=O)n2cc(C(=O)N3CCCC3)cn2)CC1 [Example 290]', 'PLA2G7 (Mus musculus, UniProt Q60963)', '> 75%'),
  ('O=C(c1cnn(C(=O)N2CCN(Cc3ccc(-c4ccccc4)cc3OCc3ccccc3)CC2)c1)N1CCCC1 [Example 291]', 'PLA2G7 (Mus musculus, UniProt Q60963)', '25 to 75%'),
  ('CCN(Cc1cccc(C)c1)C(=O)n1cc(C(F)(F)F)cn1 [Example 247]', 'PLA2G7 (Mus musculus, UniProt Q60963)', '< 25%');

* * *

- Target Or System: PLA2G7 (Mus musculus, UniProt Q60963)
- Construct: Proteomes (mouse brain membrane fraction or cell lysates); from tissue; host or cells: mouse brain membrane fraction (or cell lysates, not specified)
- Method Description: In vitro competitive activity-based protein profiling (gel-based, FP-Rh or HT-01 probe)
- Type: biochemical
- Measurement Setup: 1 μM inhibitor; read-out: % Inhibition at 1 μM, D = PLA2G7
Reported Endpoint: inhibition at 1 µM

INSERT INTO measurements (molecule, reported_endpoint, readout_value) VALUES
  ('CN(CCN(C)C(=O)n1cc(C#N)cn1)C(=O)c1ccccc1 [Example 182]', 'inhibition at 1 µM', '< 25%'),
  ('CCN(Cc1cccc(C)c1)C(=O)n1cc(Cl)cn1 [Example 135]', 'inhibition at 1 µM', '< 25%'),
  ('O=C(N1CCN(Cc2ccc(Cl)c(Cl)c2)CC1)n1cc(Cl)cn1 [Example 211]', 'inhibition at 1 µM', '< 25%'),
  ('N#Cc1cnn(C(=O)N2CCCC2)c1 [Example 203]', 'inhibition at 1 µM', '< 25%'),
  ('Cc1cnn(C(=O)N2CCN(C(=O)c3ccccc3)CC2)c1 [Example 164]', 'inhibition at 1 µM', '< 25%'),
  ('CC(=O)N(C)CCN(C)C(=O)n1cc(C#N)cn1 [Example 181]', 'inhibition at 1 µM', '< 25%'),
  ('CS(=O)(=O)N1CCCN(C(=O)n2cc(Cl)cn2)CC1 [Example 189]', 'inhibition at 1 µM', '< 25%'),
  ('CS(=O)(=O)N1CCN(C(=O)n2cc(C#N)cn2)CC1 [Example 174]', 'inhibition at 1 µM', '> 75%'),
  ('N#Cc1cnn(C(=O)NCc2ccc3ccccc3c2)c1 [Example 45]', 'inhibition at 1 µM', '< 25%'),
  ('Cc1cc(N2CCN(C(=O)n3cc(C#N)cn3)CC2)c2ccccc2n1 [Example 209]', 'inhibition at 1 µM', '> 75%'),
  ('O=C(c1cnn(C(=O)N2CCN(Cc3cncnc3)CC2)c1)N1CCOCC1 [Example 56]', 'inhibition at 1 µM', '< 25%'),
  ('O=C(c1cnn(C(=O)N2CCN(Cc3ccccn3)CC2)c1)N1CCCC1 [Example 81]', 'inhibition at 1 µM', '< 25%'),
  ('CC(=O)N1CCN(C(=O)n2cc(C)cn2)CC1 [Example 161]', 'inhibition at 1 µM', '< 25%'),
  ('O=C(N1CCN(Cc2ccc(-c3ccccc3)cc2)CC1)n1cccn1 [Example 22]', 'inhibition at 1 µM', '< 25%'),
  ('O=C(N1CCN(C(c2ccc(Cl)cc2)c2ccc(Cl)cc2)CC1)n1cc(-c2ccc(C(F)(F)F)cc2)cn1 [Example 124]', 'inhibition at 1 µM', '25 to 75%'),
  ('CN(CCN(C)S(C)(=O)=O)C(=O)n1cc(C#N)cn1 [Example 197]', 'inhibition at 1 µM', '< 25%'),
  ('CN(CCN(C)C(=O)n1cccn1)C(=O)OC(C)(C)C [Example 28]', 'inhibition at 1 µM', '< 25%'),
  ('COc1ccccc1-c1ccc(-c2cnn(C(=O)N3CCCC3)c2)cc1 [Example 107]', 'inhibition at 1 µM', '< 25%'),
  ('CC(C)(C)OC(=O)N1CCN(C(=O)n2cccn2)CC1 [Example 4]', 'inhibition at 1 µM', '< 25%'),
  ('CCN(Cc1cccc(Cl)c1)C(=O)n1cc(Cl)cn1 [Example 134]', 'inhibition at 1 µM', '< 25%');

FYI, the data here is from patent US10093630B2.
